The origin of these recorded values is ChEMBL document CHEMBL2086296.

- Tested on: NCI-H226
- experiment-description: Cytotoxicity against human NCI-H226 cells after 24 hrs by SRB assay
- Assay type: cell-based
- experimental-context: nci-h226, 24 h
quantity-kind: LC50

Request: Recorded LC50 for `O=C(/C=C/c1cc2ccccc2[nH]c1=O)c1ccc(Cl)cc1` , please?
Result: > 100 µM

Request: And the next one, `O=C(/C=C/c1cc2ccccc2[nH]c1=O)c1ccc(O)cc1` ?
Result: 34.5 µM

Request: And the next one, `O=C(/C=C/c1cc2ccccc2[nH]c1=O)/C=C/c1cc2ccccc2[nH]c1=O` ?
Result: > 100 µM

Request: And the next one, `COc1ccc(C(=O)/C=C/c2cc3ccccc3[nH]c2=O)cc1` ?
Result: > 100 µM
